# Measured target: UniProtKB P21554
# Sequence (P21554 whole entry): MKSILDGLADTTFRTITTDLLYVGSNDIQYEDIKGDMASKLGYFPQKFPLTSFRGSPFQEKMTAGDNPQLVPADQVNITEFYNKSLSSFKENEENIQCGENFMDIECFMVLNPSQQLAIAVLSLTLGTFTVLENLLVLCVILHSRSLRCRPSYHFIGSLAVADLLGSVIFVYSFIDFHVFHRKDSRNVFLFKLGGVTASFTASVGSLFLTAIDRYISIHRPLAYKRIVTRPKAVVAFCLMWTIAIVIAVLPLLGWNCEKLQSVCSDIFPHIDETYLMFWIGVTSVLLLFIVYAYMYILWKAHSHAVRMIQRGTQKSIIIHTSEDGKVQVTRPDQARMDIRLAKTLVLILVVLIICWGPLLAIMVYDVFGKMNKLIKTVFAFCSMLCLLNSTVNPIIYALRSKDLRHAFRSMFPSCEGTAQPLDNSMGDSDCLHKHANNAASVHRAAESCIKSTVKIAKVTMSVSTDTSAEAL
# Test details: Antagonist activity at human cannabinoid CB1 receptor expressed in CHO cells by luciferase reporter gene assay
Provide the reported IC50 of each item.
Please reply with the bare figure in nM and do not write the unit itself.

Query: IC50; subject: CC(C)(C)C(=O)Nc1ccc2ncn(Cc3cccc(-c4cccc5c4OCO5)c3)c2c1 64

Query: IC50; subject: CC(C)(C)C(=O)Nc1ccc2ncn(Cc3cccc(-c4cccc5c4OCO5)n3)c2c1 21

Query: IC50; subject: COc1cc(F)ccc1-c1cccc(Cn2ccc3ccc(NC(=O)C(C)(C)C)cc32)c1 58

Query: IC50; subject: CC(C)(C)C(=O)Nc1ccc2ccn(Cc3cccc(-c4cccc5c4OCO5)c3)c2c1 51

Query: IC50; subject: COc1cc(F)ccc1-c1cccc(Cc2cn(C)c3ccc(NC(=O)CC(C)(C)O)cc23)n1 19

----------
# Test details: Metabolic stability in human liver microsome assessed as compound remaining after 0.5 hrs
# Format: ADME
# Measurement setup: liver microsomes, read-out: Stability
# note: exactly 40% is not below, so it is 0; use 1 for remaining at 0.5 h strictly under it

remaining at 0.5 h strictly < 40% for this compound? CC(C)(C)C(=O)Nc1ccc2ncn(Cc3cccc(-c4cccc5c4OCO5)n3)c2c1 1

remaining at 0.5 h strictly < 40% for this compound? Cn1cc(Cc2cccc(-c3cccc4c3OCO4)c2)c2cc(NC(=O)C(C)(C)C)ccc21 0

remaining at 0.5 h strictly < 40% for this compound? CC(C)(CO)C(=O)Nc1ccc2ccn(Cc3cccc(-c4cccc5c4OCO5)n3)c2c1 0

remaining at 0.5 h strictly < 40% for this compound? Cn1cc(Cc2cccc(-c3cccc4c3OCO4)n2)c2cc(NC(=O)C(C)(C)CO)ccc21 0

remaining at 0.5 h strictly < 40% for this compound? CC(C)(C)C(=O)Nc1ccc2ccn(Cc3cccc(-c4cccc5c4OCO5)c3)c2c1 0

remaining at 0.5 h strictly < 40% for this compound? COc1cc(F)ccc1-c1cccc(Cc2cn(C)c3ccc(NC(=O)C(C)(C)C)cc23)c1 0

remaining at 0.5 h strictly < 40% for this compound? COc1cc(F)ccc1-c1cccc(Cn2ccc3ccc(NC(=O)CC(C)(C)O)cc32)n1 1

remaining at 0.5 h strictly < 40% for this compound? COc1cc(F)ccc1-c1cccc(Cn2cnc3ccc(NC(=O)C(C)(C)C)cc32)n1 1

remaining at 0.5 h strictly < 40% for this compound? COc1cc(F)ccc1-c1cccc(Cc2cn(C)c3ccc(NC(=O)C(C)(C)CO)cc23)n1 0

remaining at 0.5 h strictly < 40% for this compound? CC(C)(O)CC(=O)Nc1ccc2ccn(Cc3cccc(-c4cccc5c4OCO5)n3)c2c1 0

remaining at 0.5 h strictly < 40% for this compound? COc1cc(F)ccc1-c1cccc(Cn2ccc3ccc(NC(=O)C(C)(C)CO)cc32)n1 0

remaining at 0.5 h strictly < 40% for this compound? COc1cc(F)ccc1-c1cccc(Cn2ccc3ccc(NC(=O)C(C)(C)C)cc32)c1 0

remaining at 0.5 h strictly < 40% for this compound? Cn1cc(Cc2cccc(-c3cccc4c3OCO4)n2)c2cc(NC(=O)CC(C)(C)O)ccc21 0

remaining at 0.5 h strictly < 40% for this compound? COc1ccccc1-c1cccc(Cn2cnc3ccc(C(=O)NCc4cccc(F)c4)cc32)c1 1

remaining at 0.5 h strictly < 40% for this compound? CC(C)(C)C(=O)Nc1ccc2ncn(Cc3cccc(-c4cccc5c4OCO5)c3)c2c1 1
